Below, each entry is listed with its recorded kcat.
# Substrate: CC(C)=CCC/C(C)=C/CC/C(C)=C/CO[P@@](=O)(O)OP(=O)(O)O
# measurementDescription: steady-state kinetics of purified enzyme (details in supplement)
# Type: biochemical, Streptomyces coelicolor
# measurementSetup: Mg2+-dependent enzyme; assay conditions in supplement
valueKind: kcat (s⁻¹)

protein="Gd11olS (germacradien-11-ol synthase; N-terminal domain of geosmin synthase) (Streptomyces coelicolor A3(2); G188S) (protein, N-terminal domain, residues 1-366 of geosmin synthase; codon-optimized synthetic gene in pET28a, expressed in E. coli, purified to homogeneity; tag details in supplement) MTQQPFQLPHFYLPHPARLNPHLDEARAHSTTWAREMGMLEGSGVWEQSDLEAHDYGLLCAYTHPDCDGPALSLITDWYVWVFFFDDHFLEKYKRSQDRLAGKAHLDRLPLFMPLDDAAGMPEPRNPVEAGLADLWTRTVPAMSADWRRRFAVATEHLLNESMWELSNINEGRVANPVEYIEMRRKVSGAPWSAGLVEYATAEVPAAVAGTRPLRVLMETFSDAVHLRNDLFSYQREVEDEGELSNGVLVLETFFGCTTQEAADLVNDVLTSRLHQFEHTAFTEVPAVALEKGLTPLEVAAVGAYTKGLQDWQSGGHEWHMRSSRYMNKGERPLAGWQALTGPGTSAADVGALLADAVAQRARSYT" assayresult=4.08e-05
protein="Gd11olS (germacradien-11-ol synthase; N-terminal domain of geosmin synthase) (Streptomyces coelicolor A3(2); R228V) (protein, N-terminal domain, residues 1-366 of geosmin synthase; codon-optimized synthetic gene in pET28a, expressed in E. coli, purified to homogeneity; tag details in supplement) MTQQPFQLPHFYLPHPARLNPHLDEARAHSTTWAREMGMLEGSGVWEQSDLEAHDYGLLCAYTHPDCDGPALSLITDWYVWVFFFDDHFLEKYKRSQDRLAGKAHLDRLPLFMPLDDAAGMPEPRNPVEAGLADLWTRTVPAMSADWRRRFAVATEHLLNESMWELSNINEGRVANPVEYIEMRRKVGGAPWSAGLVEYATAEVPAAVAGTRPLRVLMETFSDAVHLVNDLFSYQREVEDEGELSNGVLVLETFFGCTTQEAADLVNDVLTSRLHQFEHTAFTEVPAVALEKGLTPLEVAAVGAYTKGLQDWQSGGHEWHMRSSRYMNKGERPLAGWQALTGPGTSAADVGALLADAVAQRARSYT" assayresult=0.000181
protein="Gd11olS (germacradien-11-ol synthase; N-terminal domain of geosmin synthase) (Streptomyces coelicolor A3(2); G188A) (protein, N-terminal domain, residues 1-366 of geosmin synthase; codon-optimized synthetic gene in pET28a, expressed in E. coli, purified to homogeneity; tag details in supplement) MTQQPFQLPHFYLPHPARLNPHLDEARAHSTTWAREMGMLEGSGVWEQSDLEAHDYGLLCAYTHPDCDGPALSLITDWYVWVFFFDDHFLEKYKRSQDRLAGKAHLDRLPLFMPLDDAAGMPEPRNPVEAGLADLWTRTVPAMSADWRRRFAVATEHLLNESMWELSNINEGRVANPVEYIEMRRKVAGAPWSAGLVEYATAEVPAAVAGTRPLRVLMETFSDAVHLRNDLFSYQREVEDEGELSNGVLVLETFFGCTTQEAADLVNDVLTSRLHQFEHTAFTEVPAVALEKGLTPLEVAAVGAYTKGLQDWQSGGHEWHMRSSRYMNKGERPLAGWQALTGPGTSAADVGALLADAVAQRARSYT" assayresult=3.7e-05
protein="Gd11olS (germacradien-11-ol synthase; N-terminal domain of geosmin synthase) (Streptomyces coelicolor A3(2); W312A) (protein, N-terminal domain, residues 1-366 of geosmin synthase; codon-optimized synthetic gene in pET28a, expressed in E. coli, purified to homogeneity; tag details in supplement) MTQQPFQLPHFYLPHPARLNPHLDEARAHSTTWAREMGMLEGSGVWEQSDLEAHDYGLLCAYTHPDCDGPALSLITDWYVWVFFFDDHFLEKYKRSQDRLAGKAHLDRLPLFMPLDDAAGMPEPRNPVEAGLADLWTRTVPAMSADWRRRFAVATEHLLNESMWELSNINEGRVANPVEYIEMRRKVGGAPWSAGLVEYATAEVPAAVAGTRPLRVLMETFSDAVHLRNDLFSYQREVEDEGELSNGVLVLETFFGCTTQEAADLVNDVLTSRLHQFEHTAFTEVPAVALEKGLTPLEVAAVGAYTKGLQDAQSGGHEWHMRSSRYMNKGERPLAGWQALTGPGTSAADVGALLADAVAQRARSYT" assayresult=4.02e-05

Taken from paper PMC7886051.
